Give koff for every item shown.
# assayed target: T1, Recombinant human CD4 (R&D Systems, Cat. 10327-CD) (human, UniProt P01730 26-390, limits assumed)
# T1 construct: Bought reagent; also called huCD4
# assay explanation: BLI Octet, non-clonal supernatant on AMC sensor, 100 nM human CD4, 1:1 local fit;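 also: Single-concentration kinetics per supernatant, with the 1:1 model fitted across both the association and dissociation phases of the sensorgram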
# unit: s⁻¹ | format: bare number

q: Please give the measured koff for this binder: 75110_03L12A (antibody, V domains shown, Tested as non-clonal AlivaMab Mouse Kappa hybridoma supernatant, captured by anti-mouse IgG Fc sensor) VH: QVQLQQWGAGLLKPSETLSLTCAVYGGSFSGYYWSWIRQPPGKGLEWIGEINHSGSTNYNPSLKSRVTISVDTSENQFSLTLISVTAADTAVYYCVRLINWFDPWGQGTLVTVSS VL: DIQMTQSPSSVSASVGDRVTITCRASQDISNWLAWYQQKPGKAPKLLIFAASSLQSGVPSRFSGSGSGTDFTLTISSLQPDDFATYYCQQANSFPYTFGQGTNLGIK
a: 0.00048

q: Entry to check: 75110_14P08A (antibody, V domains shown, Tested as non-clonal AlivaMab Mouse Kappa hybridoma supernatant, captured by anti-mouse IgG Fc sensor) VH: QVQLQESGPGLVKSSETLSLTCTDSGDSIRSYYWNWIRQPAGKGLEWIGRIYASGSTNYNPSLKSRVIMSADTSKNRFSLKLSSVTAADTAVYYCARDGGVGDSLDYWGQGTLVTVSS VL: DIVMTQTPLSLPVTPGEPASISCRSSQSLLDSDDGNTYLDWYLQKPGQSPQLLIYTLSYRASGVPDRFSGSGSGTDFTLKISRVEAEDVGVYYCMQRIEFPFTFGPGTKVDIK
a: 0.00134

q: Also 75110_09G15A (antibody, V domains shown, Tested as non-clonal AlivaMab Mouse Kappa hybridoma supernatant, captured by anti-mouse IgG Fc sensor) VH: EVQLVESGGGLVQPGGSLRLSCAASGFTFSDYWMSWVRQAPGKGLEWVANINQDGSEKYSVDSVKGRFTISRDNAKNSLYLQMNSLRAEDTAIFYCAREGGQWLALDYWGQGTLVTVSS VL: DIQMTQSPSSVSASVGDRVTITCRASQGISSWLAWYQQKPGKAPKLLIYGASSLQSGVPSRFSGSGSGTDFTLTINSLQPEDFTTYYCQQANIFPWTFGQGTKVEIK , if possible.
a: 0.011
